target: GABA-A receptor; alpha-1/beta-2/gamma-2 (Rattus norvegicus, UniProt P18508+P62813+P63138); assay: Inhibition of rat GABA alpha-1-beta-2-gamma-2 receptor
Sequence (P18508 whole entry): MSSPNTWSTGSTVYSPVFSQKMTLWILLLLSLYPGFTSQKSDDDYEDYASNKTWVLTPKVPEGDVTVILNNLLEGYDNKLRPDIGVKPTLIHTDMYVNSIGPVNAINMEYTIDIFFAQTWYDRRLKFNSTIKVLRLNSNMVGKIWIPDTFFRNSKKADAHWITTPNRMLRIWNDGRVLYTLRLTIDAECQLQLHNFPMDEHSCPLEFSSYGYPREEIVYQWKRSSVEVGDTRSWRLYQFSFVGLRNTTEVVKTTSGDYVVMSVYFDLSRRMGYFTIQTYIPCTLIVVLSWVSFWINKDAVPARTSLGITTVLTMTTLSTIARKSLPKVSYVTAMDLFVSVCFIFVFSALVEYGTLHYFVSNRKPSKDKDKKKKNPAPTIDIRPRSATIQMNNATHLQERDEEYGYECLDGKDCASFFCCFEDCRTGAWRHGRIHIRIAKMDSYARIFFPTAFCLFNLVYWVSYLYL
Sequence (P62813 whole entry): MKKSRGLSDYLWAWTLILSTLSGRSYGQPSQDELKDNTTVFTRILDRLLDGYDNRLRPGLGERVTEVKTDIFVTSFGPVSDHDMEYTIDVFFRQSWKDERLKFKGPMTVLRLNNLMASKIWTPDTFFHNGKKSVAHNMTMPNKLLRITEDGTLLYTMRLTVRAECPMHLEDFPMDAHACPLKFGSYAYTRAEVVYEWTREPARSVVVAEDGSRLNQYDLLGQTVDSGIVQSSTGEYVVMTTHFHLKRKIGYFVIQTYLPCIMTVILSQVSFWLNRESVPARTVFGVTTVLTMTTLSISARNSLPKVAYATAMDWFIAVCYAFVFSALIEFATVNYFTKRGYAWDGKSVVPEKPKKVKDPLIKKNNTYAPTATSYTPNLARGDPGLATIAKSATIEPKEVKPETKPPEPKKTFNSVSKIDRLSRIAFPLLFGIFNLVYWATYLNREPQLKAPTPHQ
Sequence (P63138 whole entry): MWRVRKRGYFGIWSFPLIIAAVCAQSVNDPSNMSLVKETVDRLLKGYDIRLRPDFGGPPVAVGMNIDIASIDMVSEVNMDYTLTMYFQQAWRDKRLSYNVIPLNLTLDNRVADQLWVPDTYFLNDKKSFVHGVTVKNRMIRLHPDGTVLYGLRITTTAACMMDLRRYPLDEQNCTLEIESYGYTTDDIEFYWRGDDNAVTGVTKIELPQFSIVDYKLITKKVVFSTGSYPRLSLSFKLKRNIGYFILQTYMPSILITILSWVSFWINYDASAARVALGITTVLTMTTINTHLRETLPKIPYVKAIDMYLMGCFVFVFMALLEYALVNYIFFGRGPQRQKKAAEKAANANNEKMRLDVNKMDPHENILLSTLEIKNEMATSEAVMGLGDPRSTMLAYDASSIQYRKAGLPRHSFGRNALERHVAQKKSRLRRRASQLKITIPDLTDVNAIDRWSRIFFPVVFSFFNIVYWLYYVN
measurement.type: pIC50
Just the number, please; pIC50 means minus log10 of the concentration in mol/L.

Sample records with pIC50:
Field pIC50 (system: GABA-A receptor; alpha-1/beta-2/gamma-2 (Rattus norvegicus, UniProt P18508+P62813+P63138)) for entry CCC(C)NC(=O)/C(=C\Nc1ccc(Cl)cc1)C(=O)c1ccccc1Cl (configuration not stated) = 7.70

Field pIC50 (system: GABA-A receptor; alpha-1/beta-2/gamma-2 (Rattus norvegicus, UniProt P18508+P62813+P63138)) for entry "CC(C)NC(=O)/C(=C\Nc1ccc(Cl)cc1)C(=O)c1ccccc1Cl" = 7.40

Field pIC50 (system: GABA-A receptor; alpha-1/beta-2/gamma-2 (Rattus norvegicus, UniProt P18508+P62813+P63138)) for entry "O=C(NC1CC1)/C(=C\Nc1ccc(Cl)cc1)C(=O)c1ccccc1Cl" = 7.52

Field pIC50 (system: GABA-A receptor; alpha-1/beta-2/gamma-2 (Rattus norvegicus, UniProt P18508+P62813+P63138)) for entry "NC(=O)/C(=C\Nc1ccc(Cl)cc1)C(=O)c1ccccc1Cl" = 5.77

Field pIC50 (system: GABA-A receptor; alpha-1/beta-2/gamma-2 (Rattus norvegicus, UniProt P18508+P62813+P63138)) for entry "O=C(NC1CCCC1)/C(=C\Nc1ccc(Cl)cc1)C(=O)c1ccccc1Cl" = 7.52

Further cases:
Field pIC50 (system: GABA-A receptor; alpha-1/beta-2/gamma-2 (Rattus norvegicus, UniProt P18508+P62813+P63138)) for entry "CC(C)(C)NC(=O)/C(=C\Nc1ccc(Cl)cc1)C(=O)c1ccccc1Cl" = 5.52

Field pIC50 (system: GABA-A receptor; alpha-1/beta-2/gamma-2 (Rattus norvegicus, UniProt P18508+P62813+P63138)) for entry CC(C)C(C)NC(=O)/C(=C\Nc1ccc(Cl)cc1)C(=O)c1ccccc1Cl (configuration not stated) = 6.40

Field pIC50 (system: GABA-A receptor; alpha-1/beta-2/gamma-2 (Rattus norvegicus, UniProt P18508+P62813+P63138)) for entry "CCC(CC)NC(=O)/C(=C\Nc1ccc(Cl)cc1)C(=O)c1ccccc1Cl" = 7.10

Field pIC50 (system: GABA-A receptor; alpha-1/beta-2/gamma-2 (Rattus norvegicus, UniProt P18508+P62813+P63138)) for entry "CNC(=O)/C(=C\Nc1ccc(Cl)cc1)C(=O)c1ccccc1Cl" = 6.80

Field pIC50 (system: GABA-A receptor; alpha-1/beta-2/gamma-2 (Rattus norvegicus, UniProt P18508+P62813+P63138)) for entry "CCCNC(=O)/C(=C\Nc1ccc(Cl)cc1)C(=O)c1ccccc1Cl" = 7.35

Field pIC50 (system: GABA-A receptor; alpha-1/beta-2/gamma-2 (Rattus norvegicus, UniProt P18508+P62813+P63138)) for entry "CCNC(=O)/C(=C\Nc1ccc(Cl)cc1)C(=O)c1ccccc1Cl" = 7.30

Field pIC50 (system: GABA-A receptor; alpha-1/beta-2/gamma-2 (Rattus norvegicus, UniProt P18508+P62813+P63138)) for entry "O=C(NC1CCC1)/C(=C\Nc1ccc(Cl)cc1)C(=O)c1ccccc1Cl" = 8.15
